Hey, just so you know, these numbers are from ChEMBL document CHEMBL1140092.

# Tested on: Plasmodium falciparum
# test: Antimalarial activity against multidrug-resistant Plasmodium falciparum TM91C235
# Assay type: functional, organism-based
The following compounds are listed with their measured IC50 values.

# line.notation, IC50, nM
records = [
    ("C[C@@H]1CC[C@H]2[C@@H](C)C(=O)O[C@@H]3O[C@@]4(C)CC[C@@H]1[C@]32OO4", 13),
    ("CC(=O)O[C@H]1C[C@H]2[C@@H]([C@H](OC(C)=O)C[C@@H]3CC4(CC[C@@]32C)OOC2(CCCCC2)OO4)[C@@H]2CC[C@H]([C@H](C)CCC(=O)NCCNc3ccnc4cc(Cl)ccc34)[C@@]12C", 8.54),
    ("Clc1ccc2c(NCCNCC3CCC4(CC3)OOC3(CCCCC3)OO4)ccnc2c1", 9.9),
]
